measurement target: S-adenosylmethionine synthase isoform type-2 (Homo sapiens, UniProt P31153)
Sequence (P31153 whole entry, canonical isoform): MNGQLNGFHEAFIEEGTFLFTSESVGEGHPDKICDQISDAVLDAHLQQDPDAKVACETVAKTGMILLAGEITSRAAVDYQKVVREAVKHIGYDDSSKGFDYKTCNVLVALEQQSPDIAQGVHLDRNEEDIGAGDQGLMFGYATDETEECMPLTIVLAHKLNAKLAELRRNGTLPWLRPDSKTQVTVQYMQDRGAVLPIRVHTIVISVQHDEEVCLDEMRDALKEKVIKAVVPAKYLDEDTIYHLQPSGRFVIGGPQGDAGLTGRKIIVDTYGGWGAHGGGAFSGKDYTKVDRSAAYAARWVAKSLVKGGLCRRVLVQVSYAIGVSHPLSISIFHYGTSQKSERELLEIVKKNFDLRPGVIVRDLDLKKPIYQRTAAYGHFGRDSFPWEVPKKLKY
assay summary: Inhibition of MAT2A (unknown origin) assessed as release of inorganic phosphate using ATP/L-methionine pre-incubated for 30 mins followed by substrate addition measured after 2.5 hrs by colorimetric assay
property measured: IC50 (µM)

Query: Look at this compound and give its reported IC50. [2H]C([2H])([2H])NC1=NC(=O)C2(CCc3ncccc32)c2cc(C(F)(F)F)ccc21 (racemic)
Response: 0.008

Query: Look at this compound and give its reported IC50. CNC1=NC(=O)C2(Cc3ccccc3C2)c2nc(C(F)(F)F)ccc21
Response: 0.055

Query: Look at this compound and give its reported IC50. CNC1=NC(=O)C2(CCc3ncccc32)c2cc(C=C(F)F)ccc21 (configuration not stated)
Response: 0.016

Query: Look at this compound and give its reported IC50. CNc1nc(=O)n(-c2ccccc2Cl)c2nc(C(F)(F)F)ccc12 (single isomer, unassigned; atropisomer 2)
Response: 0.086

Query: Look at this compound and give its reported IC50. CN(C)C1=NC(=O)C2(CCc3ncccc32)c2cc(C(F)(F)F)ccc21 (racemic)
Response: 0.019

Query: Look at this compound and give its reported IC50. CNC1=NC(=O)C2(CCc3ncccc32)c2nc(C(F)(F)F)ccc21 (configuration not stated)
Response: 0.009

[P] CNC1=NC(=O)C2(CCc3cccnc32)c2nc(C(F)(F)F)ccc21 (configuration not stated)
[Q] NC1=NC(=O)C2(CCc3ncccc32)c2cc(C(F)(F)F)ccc21 (racemic)
[R] COc1cc(NC2=NC(=O)C3(CCc4ncccc43)c3cc(C(F)(F)F)ccc32)ccn1 (racemic)
[S] C=C(c1ccc2c(c1)C1(CCc3ncccc31)C(=O)N=C2NC)C(F)(F)F (configuration not stated)
Query: # rank by IC50, ascending (min first) Write out the labels following the order that was asked for.
Response: Q, R, S, P
(Q: 0.004 µM, R: 0.012 µM, S: 0.064 µM, P: 0.591 µM)

[I] CNC1=NC(=O)C2(CCc3ncccc32)c2cc(C3CC3)c(F)cc21 (configuration not stated)
[II] CNC1=NC(=O)C2(CCc3ncccc32)c2cc(C3CC3)cc(F)c21 (configuration not stated)
[III] CNC1=NC(=O)C2(CCc3cccc(F)c32)c2nc(C(F)(F)F)ccc21 (configuration not stated)
Query: # rank by IC50, ascending (min first) Write out the labels following the order that was asked for.
Response: I, II, III
(I: 0.004 µM, II: 0.013 µM, III: 0.024 µM)

[1] [2H]C([2H])([2H])NC1=NC(=O)[C@]2(CCc3ncccc32)c2cc(C(C)(F)F)ccc21
[2] CNC1=NC(=O)C2(CCc3c(F)cccc32)c2nc(C(F)(F)F)ccc21 (configuration not stated)
Query: Lowest IC50? choose 1 or 2 Write down the label attached to your selection.
Response: 1
(1: 0.004 µM, 2: 0.011 µM)

[a] [2H]C([2H])([2H])NC1=NC(=O)[C@]2(CCc3ncccc32)c2cc(C(F)(F)F)ccc21
[b] CNC1=NC(=O)C2(CCc3c(Br)cccc32)c2nc(C(F)(F)F)ccc21 (configuration not stated)
Query: When their IC50 values are compared, which is larger, a or b ? Write down the label attached to your selection.
Response: b

[a] O=C1N=C(NC2CC2)c2ccc(C(F)(F)F)cc2C12CCc1ncccc12 (racemic)
[b] CNC1=NC(=O)C2(CCc3cc(F)ccc32)c2nc(C(F)(F)F)ccc21 (configuration not stated)
Query: Lowest IC50? choose a or b Write down the label attached to your selection.
Response: a
(a: 0.004 µM, b: 0.033 µM)
